Where do these numbers come from? They come from PubChem BioAssay AID1800.

Listing: inhibition of selected compounds
System: Hepatitis C virus NS3 helicase
assay_notes: inhibitors of HCV NS3 helicase, primary screen, biochemical, Cy5 molecular beacon fluorescence (AID 1800);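 also: 0% = DMSO wells and 100% = thioflavine S control wells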
condition_details: NS3 helicase DNA unwinding, at 10.9 µM, stronger effect = higher value
Hit rate of the full screen: of about 290,000 compounds, about 1,600 (0.55%) were called active. The full list was thinned out, with actives kept by preference.

- compound: "Cc1ccc(S(=O)(=O)NCCCn2ccnc2)cc1C(=O)NC(C)C"
  inhibition (%): -0.51
- compound: "O=C(CCl)NNc1nc(-c2ccccc2)c2cc(Cl)ccc2n1"
  inhibition (%): 3.47
- compound: "CCOc1ccc(C2C(C#N)=C(N)N(N(C)C)C3=C2C(=O)CCC3)cc1 (stereo unspecified)"
  inhibition (%): 6.79
- compound: "CCOc1ccc(C2C3=C(CCCC3=O)N(CC(=O)O)C3=C2C(=O)CCC3)cc1"
  inhibition (%): 59.8
- compound: "COC(=O)c1ccccc1NC(=O)C1CCN(C(=O)N2CCOc3ccccc32)CC1"
  inhibition (%): -12.1
- compound: "O=C(NNc1ccccn1)c1ccc(Cl)nc1"
  inhibition (%): -0.49
- compound: "COc1ccc(C2C3=C(CCCC3=O)N(CC(=O)O)C3=C2C(=O)CCC3)cc1"
  inhibition (%): 2.66
- compound: "COc1ccc(C)cc1-n1nnnc1SCC(=O)c1cc(C)n(Cc2ccco2)c1C"
  inhibition (%): 52.1
- compound: "CCOCCCN(C)C1CCN(C(=O)c2oc3ccccc3c2NC(=O)COc2cccc(C)c2)CC1"
  inhibition (%): -20.2
- compound: "Cc1[nH]n(C(N)=S)c(=O)c1N=Nc1ccc(Cl)cc1Cl"
  inhibition (%): 44.7
- compound: "COc1ccc2oc(C(=O)NCC(Cc3ccccc3)N(C)C)c(C)c2c1 (stereo unspecified)"
  inhibition (%): -39.7
